relative cell viability values, listed per item
System: HCC1937;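 also: viability read out with the CCK-8 kit in 96-well plates, screening a set of 303 compounds acting on lipid metabolism targets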
Assay: relative cell viability, compound alone, vs DMSO (fraction of DMSO control); higher = less growth inhibition
Details: 72 h
Structures can show the parent of a compound that is named as a salt.
Please reply with the number alone, leaving off any unit.

{"Compound": "O=C(Oc1ccc([N+](=O)[O-])cc1)N1CCC(C(O)(c2ccc3c(c2)OCO3)c2ccc3c(c2)OCO3)CC1", "Measured Quantity": "relative cell viability", "Numeric Result": 0.911}
{"Compound": "C[C@@H]1C(=O)O[C@H]2[C@H](O)[C@@]34O[C@@H]5OC(=O)[C@H](O)[C@@]56[C@H](C(C)(C)C)[C@H](O)C(OC3=O)[C@]64[C@@]12O (some centres not stated) [Ginkgolide C]", "Measured Quantity": "relative cell viability", "Numeric Result": 1.15}
{"Compound": "NNC(=O)c1nn(Cc2ccc(Cl)cc2Cl)c2ccccc12 [Adjudin]", "Measured Quantity": "relative cell viability", "Numeric Result": 0.767}

Need relative cell viability, item O=C(NCCN1CCC2(CC1)C(=O)NCN2c1ccccc1)c1ccc2ccccc2c1
0.491

Request: CC(C)=CCC[C@](C)(O)[C@H]1CC[C@]2(C)[C@@H]1[C@H](O)C[C@@H]1[C@@]3(C)CC[C@H](O)C(C)(C)[C@@H]3[C@@H](O[C@@H]3O[C@H](CO)[C@@H](O)[C@H](O)[C@H]3O)C[C@]12C [Ginsenoside Rh1]
1.09

Subsequent entry: Cc1cc(SCc2sc(-c3ccc(C(F)(F)F)c(F)c3)nc2C)ccc1OCC(=O)O
1.21

Try this compound too: COc1ccc(CN2CCNCC2)c(OC)c1OC [Trimetazidine dihydrochloride]
1.09

----------
Test system: MDA-MB-231
Test: relative cell viability, compound + erastin, vs DMSO (fraction of DMSO control); higher = less growth inhibition
Conditions: 72 h
So basically, if relative cell viability comes in under 0.6 it's true (1), and if it's 0.6 or more it's false (0).

Study these solved cases before continuing.
{"Compound": "CCC(C)(Oc1ccc(C2(c3ccc(OC(C)(CC)C(=O)O)cc3)CCCCC2)cc1)C(=O)O (stereo not given) [Clinofibrate] + CCOc1ccccc1-n1c(C(C)N2CCN(C(=O)COc3ccc(Cl)cc3)CC2)nc2ccccc2c1=O", "Class Name": "true (1)"}
{"Compound": "O=C(O)c1cc2c(Cl)c(N3CCN(S(=O)(=O)c4c(Cl)cccc4Cl)CC3)ccc2o1 [Vonafexor] + CCOc1ccccc1-n1c(C(C)N2CCN(C(=O)COc3ccc(Cl)cc3)CC2)nc2ccccc2c1=O", "Class Name": "false (0)"}
{"Compound": "CC[C@H](C)C(=O)O[C@H]1CCC=C2C=C[C@H](C)[C@H](CC[C@@H]3C[C@@H](O)CC(=O)O3)[C@H]21 [Mevastatin] + CCOc1ccccc1-n1c(C(C)N2CCN(C(=O)COc3ccc(Cl)cc3)CC2)nc2ccccc2c1=O", "Class Name": "true (1)"}
{"Compound": "COC(=O)CN(c1ccc(CN(c2ccc(OCc3ccc(C)cc3)c(C(=O)OC)c2)S(=O)(=O)Cc2ccccc2)cc1)S(C)(=O)=O + CCOc1ccccc1-n1c(C(C)N2CCN(C(=O)COc3ccc(Cl)cc3)CC2)nc2ccccc2c1=O", "Class Name": "false (0)"}
{"Compound": "O=C1/C(=C/c2cccs2)CC/C1=C\\c1cccs1 + CCOc1ccccc1-n1c(C(C)N2CCN(C(=O)COc3ccc(Cl)cc3)CC2)nc2ccccc2c1=O", "Class Name": "false (0)"}

Does this compound meet the criterion relative cell viability < 0.6? Cc1cc(SCc2sc(-c3ccc(C(F)(F)F)cc3)nc2C)ccc1OCC(=O)O + CCOc1ccccc1-n1c(C(C)N2CCN(C(=O)COc3ccc(Cl)cc3)CC2)nc2ccccc2c1=O
true (1)

Also, CCCCCCCCCCCC1=C(O)C(=O)C=C(O)C1=O [Embelin] + CCOc1ccccc1-n1c(C(C)N2CCN(C(=O)COc3ccc(Cl)cc3)CC2)nc2ccccc2c1=O please.
true (1)

Can you handle O=C(Nc1cnccc1Cl)N1CCN(Cc2ccc3c(c2)OC(F)(F)O3)CC1 + CCOc1ccccc1-n1c(C(C)N2CCN(C(=O)COc3ccc(Cl)cc3)CC2)nc2ccccc2c1=O next?
false (0)

----------
Tested on: MDA-MB-231
Assay: relative cell viability, compound + erastin, vs DMSO (fraction of DMSO control); higher = less growth inhibition
Conditions: 72 h
Here the recorded relative cell viability is given for each entry.

{"Compound": "CC(C)(C)NC(=O)[C@H]1CC[C@H]2[C@@H]3CC[C@H]4NC(=O)C=C[C@]4(C)[C@H]3CC[C@]12C [Finasteride] + CCOc1ccccc1-n1c(C(C)N2CCN(C(=O)COc3ccc(Cl)cc3)CC2)nc2ccccc2c1=O", "relative cell viability": 0.646}
{"Compound": "O=c1c(O[C@@H]2O[C@H](CO)[C@@H](O)[C@H](O)[C@H]2O)c(-c2ccc(O)cc2)oc2cc(O)cc(O)c12 [Astragalin] + CCOc1ccccc1-n1c(C(C)N2CCN(C(=O)COc3ccc(Cl)cc3)CC2)nc2ccccc2c1=O", "relative cell viability": 0.749}
{"Compound": "O=C(Nc1ccc(C(O)(C(F)(F)F)C(F)(F)F)cc1)c1ccccc1Cl + CCOc1ccccc1-n1c(C(C)N2CCN(C(=O)COc3ccc(Cl)cc3)CC2)nc2ccccc2c1=O", "relative cell viability": 0.844}

For MDA-MB-231, provide relative cell viability of C[C@H](CCC(=O)O)[C@H]1CC[C@H]2[C@@H]3CC[C@@H]4C[C@H](O)CC[C@]4(C)[C@H]3CC[C@]12C [Lithocholic acid] + CCOc1ccccc1-n1c(C(C)N2CCN(C(=O)COc3ccc(Cl)cc3)CC2)nc2ccccc2c1=O please.
0.688

----------
Reported relative cell viability values for a set of compounds
System: MDA-MB-231
Test: relative cell viability, compound + erastin, vs DMSO (fraction of DMSO control); higher = less growth inhibition
Conditions: 72 h
Structures can show the parent of a compound that is named as a salt.
In your answer, state the number alone without any accompanying words.

{"Compound": "C[C@H](CCC(=O)O)[C@H]1CC[C@H]2[C@@H]3C[C@H](O)[C@@H]4C[C@H](O)CC[C@]4(C)[C@H]3CC[C@]12C [Hyodeoxycholic acid] + CCOc1ccccc1-n1c(C(C)N2CCN(C(=O)COc3ccc(Cl)cc3)CC2)nc2ccccc2c1=O", "relative cell viability": 0.881}

Bench note: what relative cell viability did CCC1C(O)C2C3CCC(C(C)CCO)C3(C)CCC2C2(C)CCC(O)CC12 (centres undefined) + CCOc1ccccc1-n1c(C(C)N2CCN(C(=O)COc3ccc(Cl)cc3)CC2)nc2ccccc2c1=O show?
0.58

# iterate: CCC(=O)Nc1cccc(Oc2nc(Nc3ccc(N4CCN(C)CC4)cc3OC)ncc2Cl)c1 + CCOc1ccccc1-n1c(C(C)N2CCN(C(=O)COc3ccc(Cl)cc3)CC2)nc2ccccc2c1=O
0.795

Note, next up: O=C(NCCS(=O)(=O)c1ccc(C(F)(F)F)cn1)c1ccc(Cl)cc1 + CCOc1ccccc1-n1c(C(C)N2CCN(C(=O)COc3ccc(Cl)cc3)CC2)nc2ccccc2c1=O
0.503

// same read-out, input: CC(C)(O)c1ccccc1CC[C@@H](SCC1(CC(=O)O)CC1)c1cccc(/C=C/c2ccc3ccc(Cl)cc3n2)c1 [Montelukast] + CCOc1ccccc1-n1c(C(C)N2CCN(C(=O)COc3ccc(Cl)cc3)CC2)nc2ccccc2c1=O
0.829

Repeat with Cc1nc2ccc(NCc3cccc(C(F)(F)F)c3)cc2n(CCNC(=O)CO)c1=O + CCOc1ccccc1-n1c(C(C)N2CCN(C(=O)COc3ccc(Cl)cc3)CC2)nc2ccccc2c1=O
0.89

How about O=C(O)c1ccnc(N2CC(O)(c3ccc(OCc4c(-c5c(Cl)cccc5Cl)noc4C4CC4)cc3Cl)C2)c1 [Cilofexor] + CCOc1ccccc1-n1c(C(C)N2CCN(C(=O)COc3ccc(Cl)cc3)CC2)nc2ccccc2c1=O ?
0.692

Also, CC1(N)CCN(c2cnc(-c3cccc(Cl)c3Cl)c(N)n2)CC1 [SHP099 hydrochloride] + CCOc1ccccc1-n1c(C(C)N2CCN(C(=O)COc3ccc(Cl)cc3)CC2)nc2ccccc2c1=O please.
0.647

Then what about the compound NC(=O)c1ncn([C@@H]2O[C@H](CO)[C@@H](O)[C@H]2O)c1N [AICAR (Acadesine)] + CCOc1ccccc1-n1c(C(C)N2CCN(C(=O)COc3ccc(Cl)cc3)CC2)nc2ccccc2c1=O ?
0.973

----------
Tested on: MDA-MB-231;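 also: viability read by CCK-8 kit in 96-well plates, part of a combination screen pairing lipid-metabolism-targeting compounds with erastin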
Test: relative cell viability, compound + erastin, vs DMSO (fraction of DMSO control); higher = less growth inhibition
Settings: 72 h
Each entry below carries its recorded relative cell viability.
// print number alone

Study these solved cases before continuing.
{"Compound": "CC(=O)O[C@H](CC=C(C)C)C1=CC(=O)c2c(O)ccc(O)c2C1=O [Acetyl shikonin] + CCOc1ccccc1-n1c(C(C)N2CCN(C(=O)COc3ccc(Cl)cc3)CC2)nc2ccccc2c1=O", "relative cell viability": 0.877}
{"Compound": "O=C(O)CCn1c2c(c3ccccc31)C[C@H](NS(=O)(=O)c1ccc(F)cc1)CC2 [Ramatroban] + CCOc1ccccc1-n1c(C(C)N2CCN(C(=O)COc3ccc(Cl)cc3)CC2)nc2ccccc2c1=O", "relative cell viability": 0.806}
{"Compound": "C[N+](C)(C)CC(O)CC(=O)[O-] (stereo not drawn) [L(-)-Carnitine] + CCOc1ccccc1-n1c(C(C)N2CCN(C(=O)COc3ccc(Cl)cc3)CC2)nc2ccccc2c1=O", "relative cell viability": 0.91}

So what's the measured relative cell viability for this one? C[C@]12C=CC(=O)N[C@@H]1CC[C@@H]1[C@@H]2CC[C@]2(C)[C@@H](C(=O)Nc3cc(C(F)(F)F)ccc3C(F)(F)F)CC[C@@H]12 [Dutasteride] + CCOc1ccccc1-n1c(C(C)N2CCN(C(=O)COc3ccc(Cl)cc3)CC2)nc2ccccc2c1=O
0.596

Now give it for COc1ccc(-n2c(SCCCN3C(=O)c4cccc5cccc(c45)C3=O)nnc2-c2ccncc2)cc1 + CCOc1ccccc1-n1c(C(C)N2CCN(C(=O)COc3ccc(Cl)cc3)CC2)nc2ccccc2c1=O too.
0.658

Similarly, CC(C)=CCC[C@](C)(O)[C@H]1CC[C@]2(C)[C@@H]1[C@H](O)C[C@@H]1[C@@]3(C)CC[C@H](O)C(C)(C)[C@@H]3[C@@H](O)C[C@]12C [(20S)-Protopanaxatriol] + CCOc1ccccc1-n1c(C(C)N2CCN(C(=O)COc3ccc(Cl)cc3)CC2)nc2ccccc2c1=O ?
0.397

COc1ccc(CN2CCC(c3ccc4nc(C(=O)N5CCN(Cc6ccc(C(F)(F)F)cc6)CC5)[nH]c4c3)CC2)cn1 + CCOc1ccccc1-n1c(C(C)N2CCN(C(=O)COc3ccc(Cl)cc3)CC2)nc2ccccc2c1=O ?
0.585

Same again, this time with O=C(NC1CCN(CCCCC2(C(=O)NCC(F)(F)F)c3ccccc3-c3ccccc32)CC1)c1ccccc1-c1ccc(C(F)(F)F)cc1 [Lomitapide] + CCOc1ccccc1-n1c(C(C)N2CCN(C(=O)COc3ccc(Cl)cc3)CC2)nc2ccccc2c1=O
0.436

Same thing, different compound: CC(=O)Oc1cc(C(F)(F)F)ccc1C(=O)O [Triflusal] + CCOc1ccccc1-n1c(C(C)N2CCN(C(=O)COc3ccc(Cl)cc3)CC2)nc2ccccc2c1=O
0.648
